- Assay target: Signal transducer and activator of transcription 3 (Homo sapiens, UniProt P40763)
- Sequence (P40763 whole entry): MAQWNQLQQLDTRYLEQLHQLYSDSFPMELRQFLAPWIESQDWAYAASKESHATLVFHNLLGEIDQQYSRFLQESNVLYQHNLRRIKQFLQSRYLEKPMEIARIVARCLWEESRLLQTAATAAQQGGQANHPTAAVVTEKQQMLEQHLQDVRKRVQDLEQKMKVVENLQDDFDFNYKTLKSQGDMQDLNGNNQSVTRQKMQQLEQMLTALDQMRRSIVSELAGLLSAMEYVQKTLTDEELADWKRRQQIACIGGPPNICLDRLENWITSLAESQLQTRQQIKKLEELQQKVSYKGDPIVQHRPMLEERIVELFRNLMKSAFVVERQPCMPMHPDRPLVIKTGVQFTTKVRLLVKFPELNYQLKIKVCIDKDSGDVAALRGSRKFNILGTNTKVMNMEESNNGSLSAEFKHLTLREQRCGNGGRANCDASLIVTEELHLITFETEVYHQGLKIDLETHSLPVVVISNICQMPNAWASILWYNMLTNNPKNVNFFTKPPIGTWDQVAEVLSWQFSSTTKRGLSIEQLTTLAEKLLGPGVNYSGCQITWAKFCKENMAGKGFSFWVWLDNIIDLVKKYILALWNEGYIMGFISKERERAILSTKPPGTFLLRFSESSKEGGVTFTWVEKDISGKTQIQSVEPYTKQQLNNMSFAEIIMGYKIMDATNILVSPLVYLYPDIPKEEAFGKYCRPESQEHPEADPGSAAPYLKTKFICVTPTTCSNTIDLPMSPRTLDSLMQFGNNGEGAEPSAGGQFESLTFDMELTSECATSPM
- Assay name: Binding affinity to recombinant GST tagged STAT3 (unknown origin) assessed as dissociation constant
- Condition context: read-out: Kd
Readout kind: Kd (nM)
Output spec: scalar in nM, unitless text.

Kd recorded for this compound, COc1cc(/C=C/c2ccc(OCCCCCCC(=O)NO)cc2)cc(OC)c1 , is 33.6

* * *

- Assay name: Half life in Sprague-Dawley rat at 2 mg/kg, iv measured upto 24 hrs by LC-MS/MS analysis
- Format: ADME, organism-based
- Condition context: in vivo
Readout kind: half-life (min)
Output spec: scalar in min, unitless text.

half-life recorded for this molecule, COc1cc(/C=C/c2ccc(OCCCCCCC(=O)NO)cc2)cc(OC)c1 , is 28.2

* * *

- Assay name: Clearance in Sprague-Dawley rat at 2 mg/kg, iv measured upto 24 hrs by LC-MS/MS analysis
- Assay type: ADME, organism-based
- Condition context: in vivo
Readout kind: clearance (L/h/kg)
Output spec: scalar in L/h/kg, unitless text.

clearance recorded for this compound, COc1cc(/C=C/c2ccc(OCCCCCCC(=O)NO)cc2)cc(OC)c1 , is 3.83

* * *

- Assay name: Oral bioavailability in Sprague-Dawley rat at 20 mg/kg measured upto 24 hrs by LC-MS/MS analysis
- Type: ADME, organism-based
- Condition context: in vivo
Readout kind: bioavailability (%)
Output spec: scalar in %, unitless text.

bioavailability recorded for this compound, COc1cc(/C=C/c2ccc(OCCCCCCC(=O)NO)cc2)cc(OC)c1 , is 5.81
